I'd be grateful if you could share measured Emax for these entries.
# assay explanation: Maximum efficacy for [35S]GTP-gamma-S, binding to Opioid receptor mu 1
# Format: functional
Give bare numbers.

- molecule: "CC(=O)OC1C(SC2C=C[C@H]3[C@H]4Cc5ccc(O)c6c5[C@@]3(CCN4C)[C@H]2O6)OC(C(=O)O)C(OC(C)=O)C1OC(C)=O (stereo partly drawn)"
  Emax: 46.6
- molecule: "CC(=O)OCC1OC(SC2C=C[C@H]3[C@H]4Cc5ccc(O)c6c5[C@@]3(CCN4C)[C@H]2O6)C(OC(C)=O)C(OC(C)=O)C1OC(C)=O (stereo in doubt; 5e)"
  Emax: 76

// moving on: another record for Emax
The molecule identified as COC(=O)C1OC(SC2C=C[C@H]3[C@H]4Cc5ccc(OC)c6c5[C@@]3(CCN4C)[C@H]2O6)C(OC(C)=O)C(OC(C)=O)C1OC(C)=O (stereo partly drawn) registered its Emax at 19.3

----------
# assay explanation: Inhibition of [3H]U-69593 binding to Opioid receptor kappa 1
assay endpoint: pKi
Answers are plain numbers, as −log10 of the molar value.

Before answering, review these 2 worked examples.
- compound: "CC(=O)OCC1OC(SC2C=C[C@H]3[C@H]4Cc5ccc(OC(C)=O)c6c5[C@@]3(CCN4C)[C@H]2O6)C(OC(C)=O)C(OC(C)=O)C1OC(C)=O (stereo partly drawn)"
  pKi: 2.86
- compound: "CC(=O)OCC1OC(SC2C=C[C@H]3[C@H]4Cc5ccc(O)c6c5[C@@]3(CCN4C)[C@H]2O6)C(OC(C)=O)C(OC(C)=O)C1OC(C)=O (stereo in doubt; 5e)"
  pKi: 2.53

Turning now to a further record.
Sample COC(=O)C1OC(SC2C=C[C@H]3[C@H]4Cc5ccc(OC(C)=O)c6c5[C@@]3(CCN4C)[C@H]2O6)C(OC(C)=O)C(OC(C)=O)C1OC(C)=O (stereo partly drawn) ; pKi observed: 3.72

----------
# assay explanation: Maximum efficacy for [35S]GTP-gamma-S, binding to Opioid receptor delta 1
# Type: functional
If the reported Emax equals or exceeds 60, assign true. If not, assign false.

Here are 6 compounds together with their reported answers.
- compound: "COC(=O)C1OC(SC2C=C[C@H]3[C@H]4Cc5ccc(OC(C)=O)c6c5[C@@]3(CCN4C)[C@H]2O6)C(OC(C)=O)C(OC(C)=O)C1OC(C)=O (some centres undefined)"
  label value: "false"
- compound: "CC(=O)OCC1OC(SC2C=C[C@H]3[C@H]4Cc5ccc(OC(C)=O)c6c5[C@@]3(CCN4C)[C@H]2O6)C(OC(C)=O)C(OC(C)=O)C1OC(C)=O (some centres undefined)"
  label value: "false"
- compound: "COc1ccc2c3c1O[C@H]1C(SC4OC(C(=O)O)C(OC(C)=O)C(OC(C)=O)C4OC(C)=O)C=C[C@H]4[C@@H](C2)N(C)CC[C@]314 (some centres undefined)"
  label value: "false"
- compound: "COC(=O)C1OC(SC2C=C[C@H]3[C@H]4Cc5ccc(OC)c6c5[C@@]3(CCN4C)[C@H]2O6)C(OC(C)=O)C(OC(C)=O)C1OC(C)=O (some centres undefined)"
  label value: "true"
- compound: "COC(=O)C1OC(SC2C=C[C@H]3[C@H]4Cc5ccc(O)c6c5[C@@]3(CCN4C)[C@H]2O6)C(OC(C)=O)C(OC(C)=O)C1OC(C)=O (some centres undefined)"
  label value: "true"
- compound: "CC(=O)OC1C(SC2C=C[C@H]3[C@H]4Cc5ccc(O)c6c5[C@@]3(CCN4C)[C@H]2O6)OC(C(=O)O)C(OC(C)=O)C1OC(C)=O (some centres undefined)"
  label value: "true"

Challenge: // inclusive: Emax at least 60? input: CC(=O)OC1C(CO)OC(SC2C=C[C@H]3[C@H]4Cc5ccc(O)c6c5[C@@]3(CCN4C)[C@H]2O6)C(OC(C)=O)C1OC(C)=O (some centres undefined)
Response given: false

Challenge: Emax >= 60 for CC(=O)OCC1OC(SC2C=C[C@H]3[C@H]4Cc5ccc(O)c6c5[C@@]3(CCN4C)[C@H]2O6)C(OC(C)=O)C(OC(C)=O)C1OC(C)=O (stereo in doubt; 5e) ?
Response given: false

Challenge: Would you say CN1CC[C@]23c4c5ccc(O)c4O[C@H]2[C@@H](O[C@@H]2O[C@H](C(=O)O)[C@@H](O)[C@H](O)[C@H]2O)C=C[C@H]3[C@H]1C5 [MORPHINE GLUCURONIDE] shows Emax at minimum 60?
Response given: true

----------
Task for the reader: assign each of the following compounds its reported pKi.
# assay explanation: Inhibition of [3H]DAMGO binding to Opioid receptor mu 1
Answers are plain numbers, as −log10 of the molar value.

Record excerpt, results attached:
- compound: "COC(=O)C1OC(SC2C=C[C@H]3[C@H]4Cc5ccc(OC)c6c5[C@@]3(CCN4C)[C@H]2O6)C(OC(C)=O)C(OC(C)=O)C1OC(C)=O (stereo partly drawn)"
  pKi: 4.19
- compound: "CN1CC[C@]23c4c5ccc(O)c4O[C@H]2[C@@H](O[C@@H]2O[C@H](C(=O)O)[C@@H](O)[C@H](O)[C@H]2O)C=C[C@H]3[C@H]1C5 [MORPHINE GLUCURONIDE]"
  pKi: 4.89
- compound: "CC(=O)OC1C(SC2C=C[C@H]3[C@H]4Cc5ccc(O)c6c5[C@@]3(CCN4C)[C@H]2O6)OC(C(=O)O)C(OC(C)=O)C1OC(C)=O (stereo partly drawn)"
  pKi: 5.06

Dear colleague, could you please provide pKi for the compounds listed below?
1. COC(=O)C1OC(SC2C=C[C@H]3[C@H]4Cc5ccc(O)c6c5[C@@]3(CCN4C)[C@H]2O6)C(OC(C)=O)C(OC(C)=O)C1OC(C)=O (stereo partly drawn)
2. COC(=O)C1OC(SC2C=C[C@H]3[C@H]4Cc5ccc(OC(C)=O)c6c5[C@@]3(CCN4C)[C@H]2O6)C(OC(C)=O)C(OC(C)=O)C1OC(C)=O (stereo partly drawn)
3. COc1ccc2c3c1O[C@H]1C(SC4OC(C(=O)O)C(OC(C)=O)C(OC(C)=O)C4OC(C)=O)C=C[C@H]4[C@@H](C2)N(C)CC[C@]314 (stereo partly drawn)
4. CC(=O)OC1C(CO)OC(SC2C=C[C@H]3[C@H]4Cc5ccc(O)c6c5[C@@]3(CCN4C)[C@H]2O6)C(OC(C)=O)C1OC(C)=O (stereo partly drawn)

Response given:
1. 5.27
2. 4.00
3. 3.33
4. 5.27

Data point: CC(=O)OCC1OC(SC2C=C[C@H]3[C@H]4Cc5ccc(OC(C)=O)c6c5[C@@]3(CCN4C)[C@H]2O6)C(OC(C)=O)C(OC(C)=O)C1OC(C)=O (stereo partly drawn) ; pKi = 3.52

----------
Please provide measured Ki for the entries that follow.
# assay explanation: Inhibition of [3H]U-69593 binding to Opioid receptor kappa 1
One number for each entry, in µM.

Completed entries (count: 4):
- molecule: "COC(=O)C1OC(SC2C=C[C@H]3[C@H]4Cc5ccc(OC)c6c5[C@@]3(CCN4C)[C@H]2O6)C(OC(C)=O)C(OC(C)=O)C1OC(C)=O (stereo partly specified)"
  number: 499
- molecule: "COC(=O)C1OC(SC2C=C[C@H]3[C@H]4Cc5ccc(O)c6c5[C@@]3(CCN4C)[C@H]2O6)C(OC(C)=O)C(OC(C)=O)C1OC(C)=O (stereo partly specified)"
  number: 11
- molecule: "CN1CC[C@]23c4c5ccc(O)c4O[C@H]2[C@@H](O[C@@H]2O[C@H](C(=O)O)[C@@H](O)[C@H](O)[C@H]2O)C=C[C@H]3[C@H]1C5 [MORPHINE GLUCURONIDE]"
  number: 4060
- molecule: "CC(=O)OC1C(CO)OC(SC2C=C[C@H]3[C@H]4Cc5ccc(O)c6c5[C@@]3(CCN4C)[C@H]2O6)C(OC(C)=O)C1OC(C)=O (stereo partly specified)"
  number: 136

Per the records, this molecule ( CC(=O)OC1C(SC2C=C[C@H]3[C@H]4Cc5ccc(O)c6c5[C@@]3(CCN4C)[C@H]2O6)OC(C(=O)O)C(OC(C)=O)C1OC(C)=O (stereo partly specified) ) has Ki equal to 288

----------
# assay explanation: Maximum efficacy for [35S]GTP-gamma-S, binding to Opioid receptor kappa 1
# Type: functional
Record form. Attribute: Emax. Fill in for each entry.
Give bare numbers.

# annotated cases, reported Emax shown
- compound: "CC(=O)OCC1OC(SC2C=C[C@H]3[C@H]4Cc5ccc(O)c6c5[C@@]3(CCN4C)[C@H]2O6)C(OC(C)=O)C(OC(C)=O)C1OC(C)=O (stereo in doubt; 5e)"
  Emax: 26.5
- compound: "COC(=O)C1OC(SC2C=C[C@H]3[C@H]4Cc5ccc(O)c6c5[C@@]3(CCN4C)[C@H]2O6)C(OC(C)=O)C(OC(C)=O)C1OC(C)=O (stereo not given in full)"
  Emax: 23.5
- compound: "CC(=O)OCC1OC(SC2C=C[C@H]3[C@H]4Cc5ccc(OC(C)=O)c6c5[C@@]3(CCN4C)[C@H]2O6)C(OC(C)=O)C(OC(C)=O)C1OC(C)=O (stereo not given in full)"
  Emax: 36.9
- compound: "CC(=O)OC1C(CO)OC(SC2C=C[C@H]3[C@H]4Cc5ccc(O)c6c5[C@@]3(CCN4C)[C@H]2O6)C(OC(C)=O)C1OC(C)=O (stereo not given in full)"
  Emax: 42.5

Lab note: measured Emax of COC(=O)C1OC(SC2C=C[C@H]3[C@H]4Cc5ccc(OC)c6c5[C@@]3(CCN4C)[C@H]2O6)C(OC(C)=O)C(OC(C)=O)C1OC(C)=O (stereo not given in full) was 24.3
